- experimental system: D(1A) dopamine receptor (Rattus norvegicus)
- Sequence (P18901 whole entry): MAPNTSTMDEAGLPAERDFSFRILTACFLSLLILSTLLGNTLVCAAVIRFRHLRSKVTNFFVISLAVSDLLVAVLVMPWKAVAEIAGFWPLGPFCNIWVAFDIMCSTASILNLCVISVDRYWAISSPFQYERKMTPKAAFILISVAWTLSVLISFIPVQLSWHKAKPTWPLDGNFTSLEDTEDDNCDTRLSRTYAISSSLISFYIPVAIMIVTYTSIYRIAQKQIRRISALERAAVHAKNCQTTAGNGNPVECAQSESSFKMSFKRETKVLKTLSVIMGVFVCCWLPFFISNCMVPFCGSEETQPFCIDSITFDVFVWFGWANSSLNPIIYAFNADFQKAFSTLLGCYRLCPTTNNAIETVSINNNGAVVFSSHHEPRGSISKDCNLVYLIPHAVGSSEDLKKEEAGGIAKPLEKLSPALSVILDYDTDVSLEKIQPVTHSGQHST
- measurement protocol: Binding affinity at dopamine D1 receptor in rat striatum by [3H][…] displacement.
pIC50: −log10 of the molar value.
observable: pIC50

Known pIC50 results, listed for orientation:
C(=C/C1CCCN(CCCCc2ccccc2)C1)/c1ccccc1 (configuration not stated); 5.23
C(=C/C1CCCN(CCCc2ccccc2)C1)/c1ccccc1 (configuration not stated); 5.66

[P] C(=C\C1CCCN(CCCc2ccccc2)C1)/c1ccccc1 (configuration not stated)
[Q] CC(C)=CCN1CCCC(/C=C\c2ccccc2)C1 (configuration not stated)
Prompt: Which entry has a larger number for pIC50, P or Q ? Indicate your choice by writing its label.
Completion: Q

====

- experimental system: Sigma non-opioid intracellular receptor 1 (Rattus norvegicus, UniProt Q9R0C9)
- Sequence (Q9R0C9 whole entry): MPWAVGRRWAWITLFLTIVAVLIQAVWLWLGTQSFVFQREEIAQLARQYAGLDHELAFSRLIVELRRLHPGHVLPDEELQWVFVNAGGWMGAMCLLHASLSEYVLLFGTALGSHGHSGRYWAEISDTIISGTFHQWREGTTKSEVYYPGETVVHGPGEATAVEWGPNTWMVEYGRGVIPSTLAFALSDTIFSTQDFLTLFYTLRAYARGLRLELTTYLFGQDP
- measurement protocol: Binding affinity at sigma receptor by [3H](+)-SKF-10047 displacement.
pIC50: −log10 of the molar value.
observable: pIC50

C(=C\C1CCCN(CCCOc2ccccc2)C1)/c1ccccc1 (configuration not stated); 7.48
C(=C\C1CCCN(C2CCCCC2)C1)/c1ccccc1 (configuration not stated); 8.22
C(=C\C1CCCN(CCc2ccccc2)C1)/c1ccccc1 (configuration not stated); 8.22
O=C(NCCCCN1CCCC(/C=C\c2ccccc2)C1)C12C[C@H]3C[C@@H](C1)C[C@@H](C2)C3 (some centres not stated); 7.64
C(=C/C1CCCNC1)/c1ccccc1 (configuration not stated); 7.19
O=C(CCCN1CCCC(/C=C\c2ccccc2)C1)c1ccccc1 (configuration not stated); 7.82
C(=C/C1CCCN(CCCSc2nc3ccccc3s2)C1)/c1ccccc1 (configuration not stated); 7.57
C=CCN1CCCC(/C=C/c2ccccc2)C1 (configuration not stated); 8.40
C(=C/C1CCCN(CCC2CCCCC2)C1)/c1ccccc1 (configuration not stated); 8.15
C(=C\C1CCCN(Cc2ccccc2)C1)/c1ccccc1 (configuration not stated); 8.00

[P] C(=C/C1CCCN(CCCOc2ccccc2)C1)/c1ccccc1 (configuration not stated)
[Q] O=C(CN1CCCC(/C=C\c2ccccc2)C1)Nc1ccccc1 (configuration not stated)
Prompt: Just tell me: smaller pIC50 value, P or Q ? Please indicate the selected item by its label.
Completion: Q

====

- experimental system: D(1A) dopamine receptor (Rattus norvegicus)
- measurement protocol: Binding affinity at dopamine D1 receptor in rat striatum by [3H][…] displacement.
# IC50 listing for each entry below

C(=C/C1CCCN(CCc2ccccc2)C1)/c1ccccc1 (stereo unspecified); 0.63 µM
CC(C)=CCN1CCCC(/C=C/c2ccccc2)C1 (stereo unspecified); 1.33 µM
C(=C/C1CCCN(CCC2CCCCC2)C1)/c1ccccc1 (stereo unspecified); > 10 µM
C(=C/C1CCCN(C2CCCCC2)C1)/c1ccccc1 (stereo unspecified); > 10 µM
C(=C\C1CCCN(C2CCCCC2)C1)/c1ccccc1 (stereo unspecified); > 10 µM

Field: next molecule
Prompt: For the record C(=C\C1CCCNC1)/c1ccccc1 (stereo unspecified) , what value of IC50 is listed for D(1A) dopamine receptor (Rattus norvegicus)?
Completion: > 10 µM

====

- experimental system: Sigma non-opioid intracellular receptor 1 (Rattus norvegicus, UniProt Q9R0C9)
- measurement protocol: Binding affinity at sigma receptor by [3H](+)-SKF-10047 displacement.
observable: IC50 (nM)

[I] CC(C)=CCN1CCCC(/C=C\c2ccccc2)C1 (centres undefined)
[II] C(=C/C1CCCN(CCCc2ccccc2)C1)/c1ccccc1 (centres undefined)
[III] C=CCCCN1CCCC(/C=C/c2ccccc2)C1 (centres undefined)
[IV] C(=C/C1CCCN(C2CCCCC2)C1)/c1ccccc1 (centres undefined)
Prompt: Rank the listed compounds, smallest IC50 first and largest last. Please express your ranking as an ordered list of the labels.
Completion: II, I, IV, III
